target: T1, Human Siglec-9 mutant M16 (human, UniProt Q9Y336 18-463); assay: flow cytometry, HEK293T transfectants; '-' indicates full loss of binding
T1 construct: Expressed on HEK293T cells; also called Mutant 16
T1 sequence (Q9Y336 other isoform, or with tags, fused parts or gaps mutant): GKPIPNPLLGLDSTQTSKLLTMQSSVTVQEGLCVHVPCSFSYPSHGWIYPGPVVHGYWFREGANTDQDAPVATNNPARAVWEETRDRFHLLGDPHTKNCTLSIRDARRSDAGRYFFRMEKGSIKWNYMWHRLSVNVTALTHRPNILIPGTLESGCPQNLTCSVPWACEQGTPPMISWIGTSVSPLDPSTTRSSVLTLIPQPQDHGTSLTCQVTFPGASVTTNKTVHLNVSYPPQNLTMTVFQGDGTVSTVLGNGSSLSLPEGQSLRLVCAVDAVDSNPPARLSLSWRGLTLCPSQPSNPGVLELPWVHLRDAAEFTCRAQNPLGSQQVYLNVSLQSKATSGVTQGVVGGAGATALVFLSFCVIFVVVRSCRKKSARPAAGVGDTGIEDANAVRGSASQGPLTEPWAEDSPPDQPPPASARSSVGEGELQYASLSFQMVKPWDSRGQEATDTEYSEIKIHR

>  <Binder>
mAbA (antibody, human IgG1, V domains shown) VH: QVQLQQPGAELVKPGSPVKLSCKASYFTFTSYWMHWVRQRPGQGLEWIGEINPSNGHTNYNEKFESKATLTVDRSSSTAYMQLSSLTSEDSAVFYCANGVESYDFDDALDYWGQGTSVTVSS VL: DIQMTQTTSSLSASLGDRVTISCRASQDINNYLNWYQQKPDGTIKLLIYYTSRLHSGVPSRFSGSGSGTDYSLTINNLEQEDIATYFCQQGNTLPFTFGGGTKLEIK

>  <binding result>
no binding

$$$$
>  <Binder>
Fab.A (Fab of mAbA) (Fab, V domains shown) VH: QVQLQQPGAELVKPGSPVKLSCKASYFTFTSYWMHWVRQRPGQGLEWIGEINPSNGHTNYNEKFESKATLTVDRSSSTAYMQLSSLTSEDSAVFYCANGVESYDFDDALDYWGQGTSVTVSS VL: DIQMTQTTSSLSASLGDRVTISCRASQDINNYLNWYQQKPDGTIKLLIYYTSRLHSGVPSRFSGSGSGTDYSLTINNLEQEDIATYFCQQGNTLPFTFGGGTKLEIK

>  <binding result>
no binding

$$$$
>  <Binder>
Fab.B (Fab of mAbB) (Fab, V domains shown) VH: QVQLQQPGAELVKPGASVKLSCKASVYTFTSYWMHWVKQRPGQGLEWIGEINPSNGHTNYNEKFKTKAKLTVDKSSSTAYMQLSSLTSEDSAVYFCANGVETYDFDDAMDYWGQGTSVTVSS VL: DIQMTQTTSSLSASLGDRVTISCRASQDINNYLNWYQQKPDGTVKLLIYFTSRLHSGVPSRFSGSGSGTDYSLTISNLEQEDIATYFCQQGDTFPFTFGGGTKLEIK

>  <binding result>
no binding

$$$$
>  <Binder>
mAbB (antibody, human IgG1, V domains shown) VH: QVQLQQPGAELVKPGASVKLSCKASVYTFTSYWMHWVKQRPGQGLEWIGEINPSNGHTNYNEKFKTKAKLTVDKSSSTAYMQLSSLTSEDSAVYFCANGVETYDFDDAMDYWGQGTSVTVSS VL: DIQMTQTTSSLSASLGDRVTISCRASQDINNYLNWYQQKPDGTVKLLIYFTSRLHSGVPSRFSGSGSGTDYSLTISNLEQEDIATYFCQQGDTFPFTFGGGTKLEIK

>  <binding result>
no binding

$$$$
